Test Name: background-corrected fluorescence of 3'-dye-labeled ssDNA relative to brightest sequence (3'-GCGCG) (fraction); higher = brighter dye fluorescence (less quenching)
Reported Conditions: dye: Cy3 (3' terminal)
Classification field: enter Met for background-corrected fluorescence values not below 0.6, Not met for values below it.

Example entries begin here.
>>> category_label("TTTTTGCATGCTGCTGATGATTTTTTTTTTTTTTTTAACC [CCAAT]")
"Not met"
>>> category_label("TTTTTTGATCATCATGCTGCTTTTTTTTTTTTTTTCGGAA [AAGGC]")
"Met"
>>> category_label("TTTTTTGCTGATCATGCTGCTTTTTTTTTTTTTTTACGAA [AAGCA]")
"Not met"

Does TTTTTTGCTGATGCTGCTGCTTTTTTTTTTTTTTTACAAA [AAACA] have a reported background-corrected fluorescence of at least 0.6?
Not met

Given TTTTTTGCGCATGATGATCATTTTTTTTTTTTTTTATCCG [GCCTA] , state whether its background-corrected fluorescence is at least 0.6.
Not met

Please check the record TTTTTTGATCATGAGCAGCATTTTTTTTTTTTTTTCGCTT and state if its background-corrected fluorescence is at or above 0.6.
Not met

Given TTTTTTCATCAGCATCATGATTTTTTTTTTTTTTTGGTGC [CGTGG] , state whether its background-corrected fluorescence is at least 0.6.
Not met

Textbook exercise: given the entry TTTTTGCATGATGATGCTCATTTTTTTTTTTTTTTTCCAG [GACCT] , state whether its background-corrected fluorescence is greater than or equal to 0.6.
Not met

* * *

Test Name: background-corrected fluorescence of 3'-dye-labeled ssDNA relative to brightest sequence (3'-GCGCG) (fraction); higher = brighter dye fluorescence (less quenching)
Reported Conditions: dye: Cy3 (3' terminal)
Class (by background-corrected fluorescence) -- range A: < 0.5; range B: ≥ 0.5 and < 0.6; range C: ≥ 0.6

>>> category_label("TTTTTTGCGCAGCATGAGCATTTTTTTTTTTTTTTATTCT [TCTTA]")
"range A"
>>> category_label("TTTTTTCATCAGCATCATCATTTTTTTTTTTTTTTGGTGG")
"range C"
>>> category_label("TTTTTGCATCAGCATGAGCATTTTTTTTTTTTTTTTGTCT [TCTGT]")
"range A"
>>> category_label("TTTTTTCATCATGATCATCATTTTTTTTTTTTTTTGGCGG")
"range C"
>>> category_label("TTTTTTCATGATGATCAGCATTTTTTTTTTTTTTTGCCGT")
"range C"

Into which bin does this sequence go? TTTTTGCATGCTGCGCATGATTTTTTTTTTTTTTTTAATC [CTAAT]
range A

Class for TTTTTTGATCATGATGCTGATTTTTTTTTTTTTTTCGCAC [CACGC] ?
range A

Just checking, what class would you give TTTTTGCATGCTGATGCTGCTTTTTTTTTTTTTTTTACAA [AACAT] here?
range B

Could you place TTTTTGCATGATGATCATGCTTTTTTTTTTTTTTTTCCGA [AGCCT] in its proper category? Many thanks.
range B

Determine which band this sequence sits in: TTTTTTGCTGAGCATCATCATTTTTTTTTTTTTTTACTGG [GGTCA]
range C

State the band of TTTTTTCAGCATCATGATCATTTTTTTTTTTTTTTGTGCG [GCGTG]
range B

Into which bin does this sequence go? TTTTTGCAGCATGATGCTGATTTTTTTTTTTTTTTTTCAC [CACTT]
range A

Could you place TTTTTTCATCAGCAGCAGCATTTTTTTTTTTTTTTGGTTT in its proper category? Many thanks.
range B

Category of TTTTTTGATCATCATGATGATTTTTTTTTTTTTTTCGGCC [CCGGC] , please.
range A

Into which bin does this sequence go? TTTTTTGCGCATCATCAGCATTTTTTTTTTTTTTTATGGT [TGGTA]
range C

Form: Item = TTTTTGCATCATGATCATGCTTTTTTTTTTTTTTTTGCGA [AGCGT] ; Class = ?
range C

# classify by background-corrected fluorescence band: TTTTTGCATGCTGAGCATGATTTTTTTTTTTTTTTTACTC [CTCAT]
range A

Hi there! Could you help me figure out the category for TTTTTGCATGCTCATCATGCTTTTTTTTTTTTTTTTAGGA [AGGAT] please?
range C

* * *

Test Name: background-corrected fluorescence of 3'-dye-labeled ssDNA relative to brightest sequence (3'-GCGCG) (fraction); higher = brighter dye fluorescence (less quenching)
Reported Conditions: dye: Cy3 (3' terminal)
Output yes for background-corrected fluorescence not less than 0.5; output no otherwise.

>>> category_label("TTTTTTGCTCATGCTGCTCATTTTTTTTTTTTTTTAGAAG [GAAGA]")
"yes"
>>> category_label("TTTTTTCATCAGCAGCATGATTTTTTTTTTTTTTTGGTTC [CTTGG]")
"no"
>>> category_label("TTTTTGCATCATGCTCAGCATTTTTTTTTTTTTTTTGAGT")
"yes"

Please look at the following sequence next.
Determine whether measured background-corrected fluorescence meets or exceeds 0.5 for TTTTTGCATGAGCATGCTCATTTTTTTTTTTTTTTTCTAG [GATCT]
yes

* * *

Measured background-corrected fluorescence values are reported for all entries that follow.
Test Name: background-corrected fluorescence of 3'-dye-labeled ssDNA relative to brightest sequence (3'-GCGCG) (fraction); higher = brighter dye fluorescence (less quenching)
Reported Conditions: dye: Cy3 (3' terminal)
Form field (numeric): enter value without unit.

>>> result_number("TTTTTTGCTCATGATGAGCATTTTTTTTTTTTTTTAGCCT [TCCGA]")
0.481

Attention now turns to another entry.
So, TTTTTTGCTGATGCTCATGCTTTTTTTTTTTTTTTACAGA [AGACA] ? Its background-corrected fluorescence was 0.615

* * *

Test Name: background-corrected fluorescence of 3'-dye-labeled ssDNA relative to brightest sequence (3'-GCGCG) (fraction); higher = brighter dye fluorescence (less quenching)
Reported Conditions: dye: Cy5 (3' terminal)
Please note: 1 (yes) applies when background-corrected fluorescence is 0.4 or greater, and 0 (no) applies otherwise.

Some solved cases for reference:
>>> category_label("TTTTTTGATCATCATGCTCATTTTTTTTTTTTTTTCGGAG [GAGGC]")
"1 (yes)"
>>> category_label("TTTTTTGATGCTGATGAGCATTTTTTTTTTTTTTTCACCT [TCCAC]")
"0 (no)"
>>> category_label("TTTTTTCATCATGCTCATCATTTTTTTTTTTTTTTGGAGG")
"1 (yes)"

Does the reported background-corrected fluorescence for TTTTTTCATGCTCAGCATCATTTTTTTTTTTTTTTGAGTG [GTGAG] fall at or above the 0.4 mark?
1 (yes)

I'd appreciate it if you could say whether TTTTTTCAGCAGCAGCAGCATTTTTTTTTTTTTTTGTTTT has background-corrected fluorescence at least equal to 0.4.
0 (no)

Quick check, background-corrected fluorescence >= 0.4? TTTTTTCATCATGATGATGATTTTTTTTTTTTTTTGGCCC [CCCGG]
0 (no)

Reported background-corrected fluorescence at or above 0.4? TTTTTGCATGCTGCGCATGCTTTTTTTTTTTTTTTTAATA [ATAAT]
1 (yes)

Determine whether measured background-corrected fluorescence meets or exceeds 0.4 for TTTTTTGAGCAGCAGCATGATTTTTTTTTTTTTTTCTTTC
0 (no)

* * *

Consider the following sequences and their measured background-corrected fluorescence readings.
Test Name: background-corrected fluorescence of 3'-dye-labeled ssDNA relative to brightest sequence (3'-GCGCG) (fraction); higher = brighter dye fluorescence (less quenching)
Reported Conditions: dye: Cy5 (3' terminal)
Respond with the number and no other words.

Examples from the recorded data:
>>> result_number("TTTTTTGATCATGAGCAGCATTTTTTTTTTTTTTTCGCTT")
0.409
>>> result_number("TTTTTTGCGCATGCTCATGCTTTTTTTTTTTTTTTATAGA [AGATA]")
0.489
>>> result_number("TTTTTGCATGATCATGCTGATTTTTTTTTTTTTTTTCGAC [CAGCT]")
0.378
>>> result_number("TTTTTTCAGCATGCTGATGCTTTTTTTTTTTTTTTGTACA [ACATG]")
0.399

The sequence listed as TTTTTTGCTGATCATGCGCATTTTTTTTTTTTTTTACGAT [TAGCA] shows background-corrected fluorescence equal to 0.429

// TTTTTTCATGATGAGCATGCTTTTTTTTTTTTTTTGCCTA [ATCCG] : background-corrected fluorescence value = 0.366

In plain terms, TTTTTGCAGCATGATGATGATTTTTTTTTTTTTTTTTCCC [CCCTT] has a documented background-corrected fluorescence of 0.266

Reported background-corrected fluorescence of TTTTTTGCGCATGCTGATCATTTTTTTTTTTTTTTATACG [GCATA] : 0.43

Just so you know, measured background-corrected fluorescence for TTTTTTGCTGCTGATCATGCTTTTTTTTTTTTTTTAACGA [AGCAA] came out at 0.519

Reported background-corrected fluorescence of TTTTTTCATGCGCATGATCATTTTTTTTTTTTTTTGATCG [GCTAG] : 0.41

Hey, just so you know, these numbers are from the supplement of paper PMC9428881.
